// provenance: PubChem BioAssay

- measurementNotes: PSAC antagonists in infected red cells, primary screen, cell-based, P. falciparum Indochina, OD700, 2 h (AID 1155);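 further: lysis reports solute entry through the parasite surface anion channel PSAC; channel blockers reduce lysis of infected cells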
- conditionLabel: P. falciparum Indochina infected erythrocytes, osmotic lysis OD700; higher = more signal, called active from +8 up or from −8 down
Active and inactive are the calls of the source.
The compounds listed here are annotated with their z-score.

Task item: Using the record for "CC(C)[Si](C#C[Si](C(C)C)(C(C)C)C(C)C)(O[C@H](C)c1cn([C@H](CO)Cc2ccccc2)nn1)C(C)C" , report its z-score.
Reply: 0.655 (inactive)

Next:
Task item: Using the record for "COc1ccc(CCNC(=O)[C@@]2(Sc3ccc(C)cc3)CC(=O)N(C3Cc4ccccc4C3)[C@@H]2c2ccc(CO)cc2)cc1" , report its z-score.
Reply: -0.205 (inactive)

Task item: Request: "CCCCC(=C=CC[C@@H](O)c1ccccc1OCCO)C[C@@H](O)COCc1ccccc1"
Reply: 1.74 (inactive)

Task item: Request: CCOC(=O)C1CCCCN1 (stereo unspecified)
Reply: 0.0175 (inactive)

Task item: Request: "CCCCCCc1nc(C2CC2)cc2c1[Si](C(C)C)(C(C)C)OC2"
Reply: -0.225 (inactive)

Task item: Request: CC(C)(C)OC(=O)CC[C@]1(C(=O)NCC(O)CO)N=C(c2ccc(OCCCO)cc2)O[C@H]1c1ccccc1 (stereo partly specified)
Reply: 1.43 (inactive)

---

- measurementNotes: small-molecule binders of probe aNOTCH3, primary screen, biochemical, small-molecule microarray, 635/667 nm fluorescence (AID 1120);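 further: probe is a biotin-tagged antibody raised against NOTCH3 rather than NOTCH3 protein; score merges spot fluorescence near 667 nm with spot signal to noise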
- conditionLabel: higher = more signal
The compounds listed here are annotated with their composite z-score.
Lab note: jot down the number only; don't add units.

Task item: Using the record for "C=CCOC(=O)[C@H]1[C@@H]2C(=O)O[C@@H](c3ccccc3)[C@@H](c3ccccc3)N2[C@@H](c2ccc(OCCOC(=O)[C@H]3C[C@H]4C(=O)N[C@@H](CC(C)C)C(=O)N4[C@H]3c3cccc(OCCO)c3)cc2)[C@]12C(=O)Nc1ccc(I)cc12" , report its composite z-score.
Reply: 0.233

Task item: Request: "O=C1O[C@H](c2ccccc2)[C@H](c2ccccc2)N2[C@H]1[C@@H](C(=O)Nc1nc3ccccc3s1)[C@]1(C(=O)Nc3ccccc31)[C@H]2c1ccc(OCCO)cc1"
Reply: 0.23

Task item: Request: "CCOC(=O)[C@H]1[C@@H]2C(=O)N3CCC[C@H]3[C@H](O[Si](C(C)C)(C(C)C)C(C)C)[C@H]2C=C2CCN(S(=O)(=O)c3ccc(C)cc3)C[C@H]21"
Reply: 0.0208

Task item: Request: "C=CCOC(=O)[C@H]1[C@@H]2C(=O)O[C@@H](c3ccccc3)[C@@H](c3ccccc3)N2[C@@H](c2ccc(OCCOC(=O)[C@@H]3C[C@@H]4C(=O)N5CCC[C@H]5C(=O)N4[C@@H]3c3ccc(O)cc3)cc2)[C@]12C(=O)Nc1ccc(I)cc12"
Reply: -0.33

Task item: Request: C=CCC(OC(C)=O)[C@@H]1[C@@H](N(Cc2ccc(-c3ccccc3)cc2)C(=O)Cc2ccc(F)cc2)c2cc(OCCCO)ccc2N1C(=O)Cc1ccc(OC)cc1 (some centres not stated)
Reply: -0.0817

Task item: Request: "C=C(/C(=C/C[C@H](OC(=O)c1ccncc1)c1ccc(CO)o1)c1cc(C(=O)OC)ccc1OC)C(C)C"
Reply: -0.0414

Task item: Request: CC=CC(O)C1C=CC2C(=O)N(c3ccccc3)C(=O)C2N1Nc1ccccc1F (configuration not stated)
Reply: 0.541

Task item: Request: "CCOC(=O)c1ccc(NC(=O)O[C@H]2[C@H](OC(=O)Nc3ccc4c(c3)OCO4)[C@H](OC(=O)Nc3ccc4c(c3)OCO4)[C@@H](OC)O[C@@H]2CO)cc1"
Reply: 0.411

Task item: Request: C=C(C)[C@@H]1CC=C(C(O)C2C=CC3C(=O)N(c4ccccc4)C(=O)C3N2Nc2ccccc2F)CC1 (some centres not stated)
Reply: 0.466

Task item: Request: C=CCC(OC(C)=O)[C@@H]1[C@@H](N(Cc2ccc(-c3cccc(C(F)(F)F)c3)o2)C(=O)c2ccc(-c3ccccc3)cc2)c2cc(OCCCO)ccc2N1C(=O)c1ccc2ccccc2n1 (some centres not stated)
Reply: -0.0077

# next compound below
Task item: Using the record for "COCCOC(=O)N1C(=O)[C@@]2(c3cc(C#CC4=CCCCC4)ccc31)[C@H](c1ccccc1OCCO)N1[C@H](c3ccccc3)[C@H](c3ccccc3)OC(=O)[C@H]1[C@@H]2C(=O)N1CCCCCCC1" , report its composite z-score.
Reply: -0.582

---

- measurementNotes: P. aeruginosa biofilm formation inhibitors, primary screen, PAO1 strain, BacTiter-Glo luminescence, LB-PBS (AID 1144)
- conditionLabel: 12 h, higher = more signal
Note that class boundaries on z-score are class 1 = under -0.8, class 2 = from -0.8 up to 0.3, class 3 = 0.3 and over

// known answers, use as guide
Task item: Textbook exercise: identify the category of the compound given here, O=C1NC(=O)C2C1C=CC(C(O)CCc1ccccc1)N2Nc1ccc(Cl)cc1Cl (centres undefined) , according to its measured value.
Reply: class 2

Task item: Request: "O=C1O[C@@H](c2ccccc2)[C@@H](c2ccccc2)N2[C@@H](c3ccc(O)cc3)[C@]3(C(=O)Nc4ccc(C#CC5=CCCCC5)cc43)[C@@H](C(=O)NC[C@H](O)c3ccccc3)[C@H]12"
Reply: class 1

Task item: Request: "COc1ccc(-c2nc(-c3ccccc3)c3c(c2C)CO[Si]3(C(C)C)C(C)C)cn1"
Reply: class 3

Task item: Request: "O=C1O[C@H](c2ccccc2)[C@H](c2ccccc2)N2[C@H]1[C@@H](C(=O)O)[C@]1(C(=O)Nc3ccc(C#CC4=CCCCC4)cc31)[C@H]2c1ccc(O)cc1"
Reply: class 3

Task item: Request: "COC(=O)[C@@]1(Cc2ccc(OC)cc2)[C@H]2c3cc(C(=O)N4CCCC4)n(Cc4cccc5ccccc45)c3C[C@H]2CN1C(=O)c1ccccc1"
Reply: class 3

Next:
Task item: Textbook exercise: identify the category of the compound given here, O=C1OCCC/C=C\[C@H]2OC34C=CCN(CCN5CCOCC5)C(=O)[C@H]3N(CCCCCCO)C(=O)[C@@H]4C12 (some centres undefined) , according to its measured value.
Reply: class 1

Task item: Request: "O=C1C=C(c2ccccc2)C(=O)c2ccc([C@H]3Oc4ccccc4S(=O)(=O)N4CCC[C@@H]34)cc21"
Reply: class 2

---

- measurementNotes: HepG2 cell viability effects, profiling panel, calcein-AM fluorescence, 48 h, basal (AID 1164); further: test concentration not given here
- conditionLabel: higher = more signal
observable: z-score
Lab note: jot down the number only; don't add units.

Task item: Using the record for CN(C)C(=O)C1N=C(c2ccc(OCCCO)cc2)N(c2ccccc2)O1 (configuration not stated) , report its z-score.
Reply: 0.411

Task item: Request: "C=CCOC(=O)[C@H]1[C@@H]2C(=O)O[C@@H](c3ccccc3)[C@@H](c3ccccc3)N2[C@@H](c2ccc(OCCOC(=O)[C@@H]3C[C@@H]4C(=O)N[C@@H](CCCCN(C)C)C(=O)N4[C@@H]3c3ccc(O)cc3)cc2)[C@]12C(=O)Nc1ccccc12"
Reply: 0.52

Task item: Request: O=C1OCCC=C[C@H]2OC34C=CCN(Cn5nnc6ccccc65)C(=O)[C@H]3N(CCCCCCO)C(=O)[C@@H]4C12 (some centres not stated)
Reply: -0.381

Task item: Request: CN1C(=O)C2C=CC(C(O)c3cccc4ccccc34)N(N3CCCCC3)C2C1=O (configuration not stated)
Reply: -0.776

Task item: Request: "O=C(NCC(F)(F)F)[C@@H]1c2ccccc2C(=O)N(Cc2ccccc2C(F)(F)F)[C@H]1c1ccc(CO)cc1"
Reply: 0.0606

Task item: Request: C[C@H]1NC(=O)[C@@]23C(=O)N[C@@H](Cc4ccccc4)C2[C@H](C)[C@@]2(C)O[C@H]2C3/C=C/C/C=C\CNC(=O)[C@H](Cc2ccccc2)NC1=O (some centres not stated)
Reply: -0.607

Task item: Request: CN(C)c1ccc(C(O)C2C=CC3C(=O)N(c4ccccc4)C(=O)C3N2Nc2ccc([N+](=O)[O-])cc2)cc1 (configuration not stated)
Reply: 0.583

Task item: Request: [N-]=[N+]=NCc1ccccc1[C@@H]1OC(c2ccc(OCCCO)cc2)=N[C@]1(CCS(=O)(=O)c1ccccc1)C(=O)NCC(O)CO (some centres not stated)
Reply: 1.4

Task item: Request: "CCOC(=O)c1ccc(NC(=O)O[C@H]2[C@H](OC(=O)Nc3ccc4c(c3)OCO4)[C@H](OC(=O)Nc3ccc4c(c3)OCO4)[C@@H](OC)O[C@@H]2CO)cc1"
Reply: -1.02

Task item: Request: "CN(C)CCCNC(=O)[C@@]1(c2ccc([N+](=O)[O-])cc2)CC(=O)N(CC23CC4CC(CC(C4)C2)C3)[C@@H]1c1ccc(CO)cc1I"
Reply: -5.25

Task item: Request: "CN(C)CCCNC(=O)[C@@H]1c2ccccc2C(=O)N(Cc2ccccc2Cl)[C@H]1c1ccc(CO)cc1"
Reply: 0.112

Task item: Request: "C=CCOC(=O)[C@H]1[C@@H]2C(=O)O[C@@H](c3ccccc3)[C@@H](c3ccccc3)N2[C@@H](c2ccc(OCCOC(=O)[C@H]3C[C@H]4C(=O)N[C@@H](CCCCNC(C)=O)C(=O)N4[C@H]3c3ccc(O)cc3)cc2)[C@]12C(=O)Nc1ccccc12"
Reply: 1.27
